Recorded OD450 nm for the following binders
- assayedTarget: T1, human MSLN-hFc protein (Acro, Cat. No. MSN-H5253) (human, UniProt Q13421 296-580)
- T1 construct: bought protein; also called human MSLN full-length protein; not shown: human Fc (hFc) of the bought protein
- T1 sequence (Q13421 other isoform, or with tags, fused parts or gaps limits assumed): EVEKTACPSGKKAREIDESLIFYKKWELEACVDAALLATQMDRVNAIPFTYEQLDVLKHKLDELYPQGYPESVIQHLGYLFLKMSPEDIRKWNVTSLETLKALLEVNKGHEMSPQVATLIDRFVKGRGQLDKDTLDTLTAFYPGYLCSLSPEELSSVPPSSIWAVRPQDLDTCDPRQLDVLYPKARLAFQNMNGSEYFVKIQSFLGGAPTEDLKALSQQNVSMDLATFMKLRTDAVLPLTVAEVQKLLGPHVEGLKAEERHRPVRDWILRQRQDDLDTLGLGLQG
- assayName: ELISA, coated human MSLN-hFc, antibody 0.1 nM
// return a plain number; no unit text

F2.39.3-H8 (scFv, not shown: small tags and cut ends, also called S009-F2.39.3 humanized VH2 + VL4) scFv: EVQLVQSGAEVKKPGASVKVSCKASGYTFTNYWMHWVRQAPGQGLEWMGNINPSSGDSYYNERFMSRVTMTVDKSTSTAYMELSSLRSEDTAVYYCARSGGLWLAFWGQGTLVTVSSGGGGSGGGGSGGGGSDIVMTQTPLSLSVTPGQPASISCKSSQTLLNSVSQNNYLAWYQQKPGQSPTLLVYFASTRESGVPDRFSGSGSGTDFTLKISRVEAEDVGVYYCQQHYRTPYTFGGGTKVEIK = 0.1

OD450 nm for F2.39.3-H1 (scFv, not shown: small tags and cut ends, expressed as VH-(G4S)3-VL-his or VL-(G4S)3-VH-his; also called S009-F2.39.3 humanized VH1 + VL1) scFv: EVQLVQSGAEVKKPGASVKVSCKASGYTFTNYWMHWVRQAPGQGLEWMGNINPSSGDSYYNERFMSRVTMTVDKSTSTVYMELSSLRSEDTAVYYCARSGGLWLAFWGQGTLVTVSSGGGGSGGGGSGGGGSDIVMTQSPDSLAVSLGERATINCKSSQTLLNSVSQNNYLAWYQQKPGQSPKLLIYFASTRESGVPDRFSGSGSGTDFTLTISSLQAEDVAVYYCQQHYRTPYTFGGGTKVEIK is 0.17
